system: RXRa homodimer (NR concentration 180 nM); assay: PBM binding z-score (relative to random genomic background probes); higher = stronger binding; sequences stand for … in GC…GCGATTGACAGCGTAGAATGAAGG
Measured attribute: PBM binding z-score

Would you mind giving PBM binding z-score for every sequence in the list below?
1. TTACCAAGGTGAAGTTCGTTGATCCCTCTGTAGA
2. AGTCGAAGTTCATCTAGGTAACGTAAGATATGCT
3. ATATATAGGTTACATCCGGGTCATTCAGGCTATG
4. TCATATACGTAAAGGTGAAAGTCGAACGATATGA
5. ATACCAAGGTGATAGTGAGGTCGTTGATACTAAC
6. CGAACTAGGTCAGAACAGGATAGTGAAGGATGAT

Given back:
1: 0.97; 2: 1.91; 3: 3.51; 4: 2.1; 5: 1.84; 6: 1.34

Values compiled from the supplement of paper PMC6555819.
